Catalogue of variants with associated abundance fitness
B1: Histone-lysine N-methyltransferase SETD2, residues 2382 to 2430; numbered along this chain, Q9BYW2 (parent)
chain: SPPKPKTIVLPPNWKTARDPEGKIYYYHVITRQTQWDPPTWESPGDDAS

- Variants of: B1
- experiment: abundance fitness (aPCA) (normalised: wild type 0, dead -1); higher = more abundant; growth selection in yeast, the domain comes from the species named
- measurement_conditions: Homo sapiens
quantity_measured: abundance fitness

1. A48I | 0.095
2. E21T | -0.229
3. T34V | -0.075
4. D37M | -0.184
5. D46M | -0.297
6. I8M | 0.179
7. T16W | -0.026
8. P12D | -0.013
9. P20D | -0.122
10. P2E | -0.224
11. T40P | 0.017
12. A48T | 0.147
13. E42M | -0.457
14. P2S | 0.237
15. Y27R | -0.265
16. G22D | -0.128
17. V9E | -0.255
18. S1A | -0.597
19. Y26G | -0.934
20. A48L | -0.077
21. P5L | 0.125
22. T34I | -0.149
